Ref: patent EP0237866A1

Target: Cutinase (Fusarium vanettenii, UniProt P00590)
Construct: Das Enzym Cutinase wird aus Kulturfiltrat von Fusarium solani f.sp.pisi nach Standardmethoden gereinigt; endogenous in cells
Sequence (P00590 32-230): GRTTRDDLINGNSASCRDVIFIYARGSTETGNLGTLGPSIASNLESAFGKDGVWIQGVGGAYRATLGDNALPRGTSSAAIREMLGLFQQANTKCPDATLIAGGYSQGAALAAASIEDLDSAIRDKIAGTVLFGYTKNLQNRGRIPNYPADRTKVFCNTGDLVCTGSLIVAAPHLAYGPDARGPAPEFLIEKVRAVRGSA
Assay: Cutinase inhibitor test
Conditions: p-Nitrophenylbutyrat as substrate, 30 min incubation at 30°C, phosphate buffer 0,1 M pH 8 + 0,3% Triton X-100; read-out: I50
IC50 values for the compounds below.
Reply numerically in nM, unit not repeated.

> print(dat)
                                   compound                              assay.system  reading
1  CCCCOP(=O)(OC)Oc1nc(Cl)c(Cl)cc1Cl (stereo not drawn)  Cutinase (Fusarium vanettenii, UniProt P00590)       36

Problem: Data request, read-out IC50, for CCCOP(=O)(OC)Oc1nc(Cl)c(Cl)cc1Cl (stereo not drawn)
Result: 39

Problem: Which IC50 value is on record for CCOP(=O)(OCC)Oc1nc(Cl)c(Cl)cc1Cl [A, reference compound] ?
Result: 190
